procedure text: in vitro
Assay type: cell-based
condition info: human, NHK cells (normal human keratinocytes)
Residues, ends and D or L forms follow the SMILES beside them.
endpoint: viability at 24 h, 6.25 µM (%)

compound="CC[C@H](C)[C@H](NC(=O)[C@H](Cc1c[nH]c2ccccc12)NC(=O)[C@H](CCCNC(=N)N)NC(=O)[C@@H](NC(=O)[C@@H](N)CCCNC(=N)N)[C@@H](C)CC)C(=O)N[C@@H](CC(C)C)C(=O)N[C@@H](CCCNC(=N)N)C(=O)N[C@@H](Cc1ccc(O)cc1)C(=O)N[C@@H](Cc1c[nH]c2ccccc12)C(=O)N[C@@H](CCCNC(=N)N)C(=O)N[C@@H](Cc1c[nH]c2ccccc12)C(=O)N[C@@H](CO)C(N)=O [Myxinidin 3, RIRWILRYWRWS-NH2] (H-RIRWILRYWRWS-NH2; N-terminus assumed)" result_number=100
compound="CC[C@H](C)[C@H](NC(=O)CN)C(=O)N[C@@H](Cc1c[nH]cn1)C(=O)N[C@@H](Cc1c[nH]cn1)C(=O)N[C@H](C(=O)N[C@@H](CC(C)C)C(=O)N[C@@H](CCCCN)C(=O)N[C@@H](Cc1ccc(O)cc1)C(=O)NCC(=O)N[C@@H](CCCCN)C(=O)N1CCC[C@H]1C(=O)N[C@@H](CO)C(N)=O)[C@@H](C)CC [Myxinidin 1, GIHHILKYGKPS-NH2] (H-GIHHILKYGKPS-NH2; N-terminus assumed)" result_number=96
compound="CC[C@H](C)[C@H](NC(=O)CN)C(=O)N[C@@H](Cc1c[nH]cn1)C(=O)N[C@@H](CC(=O)O)C(=O)N[C@H](C(=O)N[C@@H](CC(C)C)C(=O)N[C@@H](CCCCN)C(=O)N[C@@H](Cc1ccc(O)cc1)C(=O)NCC(=O)N[C@@H](CCCCN)C(=O)N1CCC[C@H]1C(=O)N[C@@H](CO)C(N)=O)[C@@H](C)CC [Myxinidin, GIHDILKYGKPS-NH2] (H-GIHDILKYGKPS-NH2)" result_number=98

----------
Tested on: Escherichia coli ATCC 25922
Assay type: cell-based
Residues, ends and D or L forms follow the SMILES beside them.
endpoint: Minimum growth inhibitory concentration (µM)

compound="CC[C@H](C)[C@H](NC(=O)[C@H](Cc1c[nH]c2ccccc12)NC(=O)[C@H](CCCNC(=N)N)NC(=O)[C@@H](NC(=O)[C@@H](N)CCCNC(=N)N)[C@@H](C)CC)C(=O)N[C@@H](CC(C)C)C(=O)N[C@@H](CCCNC(=N)N)C(=O)N[C@@H](Cc1ccc(O)cc1)C(=O)N[C@@H](Cc1c[nH]c2ccccc12)C(=O)N[C@@H](CCCNC(=N)N)C(=O)N[C@@H](Cc1c[nH]c2ccccc12)C(=O)N[C@@H](CO)C(N)=O [Myxinidin 3, RIRWILRYWRWS-NH2] (H-RIRWILRYWRWS-NH2; N-terminus assumed)" modifier== result_number=0.5
compound="CC[C@H](C)[C@H](NC(=O)[C@H](Cc1c[nH]c2ccccc12)NC(=O)[C@H](CCCCN)NC(=O)[C@@H](NC(=O)[C@@H](N)CCCCN)[C@@H](C)CC)C(=O)N[C@@H](CC(C)C)C(=O)N[C@@H](CCCCN)C(=O)N[C@@H](Cc1ccc(O)cc1)C(=O)N[C@@H](Cc1c[nH]c2ccccc12)C(=O)N[C@@H](CCCCN)C(=O)N[C@@H](Cc1c[nH]c2ccccc12)C(=O)N[C@@H](CO)C(N)=O [Myxinidin 2, KIKWILKYWKWS-NH2] (H-KIKWILKYWKWS-NH2; N-terminus assumed)" modifier== result_number=1
compound="CC[C@H](C)[C@H](NC(=O)CN)C(=O)N[C@@H](Cc1c[nH]cn1)C(=O)N[C@@H](CC(=O)O)C(=O)N[C@H](C(=O)N[C@@H](CC(C)C)C(=O)N[C@@H](CCCCN)C(=O)N[C@@H](Cc1ccc(O)cc1)C(=O)NCC(=O)N[C@@H](CCCCN)C(=O)N1CCC[C@H]1C(=O)N[C@@H](CO)C(N)=O)[C@@H](C)CC [Myxinidin, GIHDILKYGKPS-NH2] (H-GIHDILKYGKPS-NH2)" modifier=> result_number=32
compound="CC[C@H](C)[C@H](NC(=O)CN)C(=O)N[C@@H](Cc1c[nH]cn1)C(=O)N[C@@H](Cc1c[nH]cn1)C(=O)N[C@H](C(=O)N[C@@H](CC(C)C)C(=O)N[C@@H](CCCCN)C(=O)N[C@@H](Cc1ccc(O)cc1)C(=O)NCC(=O)N[C@@H](CCCCN)C(=O)N1CCC[C@H]1C(=O)N[C@@H](CO)C(N)=O)[C@@H](C)CC [Myxinidin 1, GIHHILKYGKPS-NH2] (H-GIHHILKYGKPS-NH2; N-terminus assumed)" modifier=> result_number=32

----------
The following compounds are listed with their measured viability at 24 h, 25 µM values.
procedure text: in vitro
Assay type: cell-based
condition info: human, NHK cells (normal human keratinocytes)
Residues, ends and D or L forms follow the SMILES beside them.
endpoint: viability at 24 h, 25 µM (%)

compound="CC[C@H](C)[C@H](NC(=O)CN)C(=O)N[C@@H](Cc1c[nH]cn1)C(=O)N[C@@H](Cc1c[nH]cn1)C(=O)N[C@H](C(=O)N[C@@H](CC(C)C)C(=O)N[C@@H](CCCCN)C(=O)N[C@@H](Cc1ccc(O)cc1)C(=O)NCC(=O)N[C@@H](CCCCN)C(=O)N1CCC[C@H]1C(=O)N[C@@H](CO)C(N)=O)[C@@H](C)CC [Myxinidin 1, GIHHILKYGKPS-NH2] (H-GIHHILKYGKPS-NH2; N-terminus assumed)" result_number=88
compound="CC[C@H](C)[C@H](NC(=O)CN)C(=O)N[C@@H](Cc1c[nH]cn1)C(=O)N[C@@H](CC(=O)O)C(=O)N[C@H](C(=O)N[C@@H](CC(C)C)C(=O)N[C@@H](CCCCN)C(=O)N[C@@H](Cc1ccc(O)cc1)C(=O)NCC(=O)N[C@@H](CCCCN)C(=O)N1CCC[C@H]1C(=O)N[C@@H](CO)C(N)=O)[C@@H](C)CC [Myxinidin, GIHDILKYGKPS-NH2] (H-GIHDILKYGKPS-NH2)" result_number=95
compound="CC[C@H](C)[C@H](NC(=O)[C@H](Cc1c[nH]c2ccccc12)NC(=O)[C@H](CCCCN)NC(=O)[C@@H](NC(=O)[C@@H](N)CCCCN)[C@@H](C)CC)C(=O)N[C@@H](CC(C)C)C(=O)N[C@@H](CCCCN)C(=O)N[C@@H](Cc1ccc(O)cc1)C(=O)N[C@@H](Cc1c[nH]c2ccccc12)C(=O)N[C@@H](CCCCN)C(=O)N[C@@H](Cc1c[nH]c2ccccc12)C(=O)N[C@@H](CO)C(N)=O [Myxinidin 2, KIKWILKYWKWS-NH2] (H-KIKWILKYWKWS-NH2; N-terminus assumed)" result_number=75
compound="CC[C@H](C)[C@H](NC(=O)[C@H](Cc1c[nH]c2ccccc12)NC(=O)[C@H](CCCNC(=N)N)NC(=O)[C@@H](NC(=O)[C@@H](N)CCCNC(=N)N)[C@@H](C)CC)C(=O)N[C@@H](CC(C)C)C(=O)N[C@@H](CCCNC(=N)N)C(=O)N[C@@H](Cc1ccc(O)cc1)C(=O)N[C@@H](Cc1c[nH]c2ccccc12)C(=O)N[C@@H](CCCNC(=N)N)C(=O)N[C@@H](Cc1c[nH]c2ccccc12)C(=O)N[C@@H](CO)C(N)=O [Myxinidin 3, RIRWILRYWRWS-NH2] (H-RIRWILRYWRWS-NH2; N-terminus assumed)" result_number=100

----------
Test system: Escherichia coli CCARM 1229
Format: cell-based
Residues, ends and D or L forms follow the SMILES beside them.
endpoint: Minimum growth inhibitory concentration

compound="CC[C@H](C)[C@H](NC(=O)CN)C(=O)N[C@@H](Cc1c[nH]cn1)C(=O)N[C@@H](Cc1c[nH]cn1)C(=O)N[C@H](C(=O)N[C@@H](CC(C)C)C(=O)N[C@@H](CCCCN)C(=O)N[C@@H](Cc1ccc(O)cc1)C(=O)NCC(=O)N[C@@H](CCCCN)C(=O)N1CCC[C@H]1C(=O)N[C@@H](CO)C(N)=O)[C@@H](C)CC [Myxinidin 1, GIHHILKYGKPS-NH2] (H-GIHHILKYGKPS-NH2; N-terminus assumed)" result=">32 µM"
compound="CC[C@H](C)[C@H](NC(=O)[C@H](Cc1c[nH]c2ccccc12)NC(=O)[C@H](CCCCN)NC(=O)[C@@H](NC(=O)[C@@H](N)CCCCN)[C@@H](C)CC)C(=O)N[C@@H](CC(C)C)C(=O)N[C@@H](CCCCN)C(=O)N[C@@H](Cc1ccc(O)cc1)C(=O)N[C@@H](Cc1c[nH]c2ccccc12)C(=O)N[C@@H](CCCCN)C(=O)N[C@@H](Cc1c[nH]c2ccccc12)C(=O)N[C@@H](CO)C(N)=O [Myxinidin 2, KIKWILKYWKWS-NH2] (H-KIKWILKYWKWS-NH2; N-terminus assumed)" result="2 µM"
compound="CC[C@H](C)[C@H](NC(=O)[C@H](Cc1c[nH]c2ccccc12)NC(=O)[C@H](CCCNC(=N)N)NC(=O)[C@@H](NC(=O)[C@@H](N)CCCNC(=N)N)[C@@H](C)CC)C(=O)N[C@@H](CC(C)C)C(=O)N[C@@H](CCCNC(=N)N)C(=O)N[C@@H](Cc1ccc(O)cc1)C(=O)N[C@@H](Cc1c[nH]c2ccccc12)C(=O)N[C@@H](CCCNC(=N)N)C(=O)N[C@@H](Cc1c[nH]c2ccccc12)C(=O)N[C@@H](CO)C(N)=O [Myxinidin 3, RIRWILRYWRWS-NH2] (H-RIRWILRYWRWS-NH2; N-terminus assumed)" result="1 µM"
compound="CC[C@H](C)[C@H](NC(=O)CN)C(=O)N[C@@H](Cc1c[nH]cn1)C(=O)N[C@@H](CC(=O)O)C(=O)N[C@H](C(=O)N[C@@H](CC(C)C)C(=O)N[C@@H](CCCCN)C(=O)N[C@@H](Cc1ccc(O)cc1)C(=O)NCC(=O)N[C@@H](CCCCN)C(=O)N1CCC[C@H]1C(=O)N[C@@H](CO)C(N)=O)[C@@H](C)CC [Myxinidin, GIHDILKYGKPS-NH2] (H-GIHDILKYGKPS-NH2)" result=">32 µM"
